meta.source: ChEMBL document CHEMBL1137243

System: Cryptococcus neoformans
protocol: Antifungal activity against Cryptococcus neoformans after 72 hrs
Type: functional
readout: MIC80 (µg/mL)
Dear colleague, please return just the value in µg/mL, with no unit written.

get_value(item= OC(Cn1cncn1)(Cn1cncn1)c1ccc(F)cc1F [FLUCONAZOLE] , readout=MIC80) returns 6.25

# MIC80 (compound: `CCCCCN1CCc2cc(O)c(O)cc2C1` ) is 100

The value of MIC80 measured for the compound `CCCCCCCCCCCCN1CCc2cc(O)c(O)cc2C1` turned out to be 6.25

// `CCCCCCCCN1CCc2cc(O)c(O)cc2C1` : MIC80 value = 100

// recorded MIC80 for `CCCCCCCCCCN1CCc2cc(O)c(O)cc2C1` : 3.12

Short answer for `CCCCCCCCCN1CCc2cc(O)c(O)cc2C1` : MIC80 was 25

MIC80 reported for this compound `CCCCCCCN1CCc2cc(O)c(O)cc2C1` : 100

Notebook: `CCCCCCCCCCCCCCN1CCc2cc(O)c(O)cc2C1` , MIC80 read as 6.25

`CCCCCCN1CCc2cc(O)c(O)cc2C1` yielded MIC80 of 100

get_value(item= `CCCCCCCCCCCCCCCCN1CCc2cc(O)c(O)cc2C1` , readout=MIC80) returns 100

====

Tested on: Trichophyton rubrum
protocol: Antifungal activity against Trichophyton rubrum after 7 days
Type: functional
conditions-used: 168 h
Assign labels as follows, please: rule met for MIC80 below 20 µg/mL; rule not met for MIC80 equal to or exceeding 20 µg/mL.

Problem: Would you kindly verify if MIC80 of `CCCCCCCCCCN1CCc2cc(O)c(O)cc2C1` is strictly less than 20 µg/mL?
Result: rule met

Problem: Identify whether the compound `CCCCCCN1CCc2cc(O)c(O)cc2C1` records MIC80 below 20 µg/mL.
Result: rule not met

Problem: Decide: MIC80 of `CCCCCCCCCCCCN1CCc2cc(O)c(O)cc2C1` strictly below 20 µg/mL?
Result: rule met

Problem: Please indicate whether the reported MIC80 of `CCCCCCCCCCCCCCN1CCc2cc(O)c(O)cc2C1` is strictly below 20 µg/mL.
Result: rule not met

Problem: Criterion: MIC80 strictly below 20 µg/mL. Is it met by `OC(Cn1cncn1)(Cn1cncn1)c1ccc(F)cc1F` ?
Result: rule not met

Problem: Does `CCCCCN1CCc2cc(O)c(O)cc2C1` have MIC80 strictly under 20 µg/mL?
Result: rule not met

Problem: Does the reported MIC80 of `CCCCCCCCCN1CCc2cc(O)c(O)cc2C1` stay below 20 µg/mL?
Result: rule met

Problem: Does `CCCCCCCN1CCc2cc(O)c(O)cc2C1` have MIC80 strictly under 20 µg/mL?
Result: rule not met

Problem: Answer whether the compound `CCCCCCCCN1CCc2cc(O)c(O)cc2C1` has MIC80 strictly less than 20 µg/mL
Result: rule not met

Problem: Report whether reported MIC80 is lower than 20 µg/mL (strictly) for `CCCCCCCCCCCCCCCCN1CCc2cc(O)c(O)cc2C1`
Result: rule not met

====

System: Candida albicans
protocol: Antifungal activity against Candida albicans after 24 hrs
Type: functional
readout: MIC80 (µg/mL)
Value expressed in µg/mL; do not type the unit.

The recorded MIC80 for `CCCCCCCCCCN1CCc2cc(O)c(O)cc2C1` is 100

The recorded MIC80 for `CCCCCCCCCCCCCCN1CCc2cc(O)c(O)cc2C1` is 50

`CCCCCCCCCN1CCc2cc(O)c(O)cc2C1` yielded MIC80 of 200

The compound identified as `OC(Cn1cncn1)(Cn1cncn1)c1ccc(F)cc1F` registered its MIC80 at 1.56

Entry `CCCCCCCCCCCCN1CCc2cc(O)c(O)cc2C1` , MIC80 reported as 50
